target: 5-hydroxytryptamine receptor 1B (Homo sapiens, UniProt P28222); experiment: Intrinsic activity for human 5-hydroxytryptamine 1B receptor in [35S]GTP-gamma-S, assay; type: functional
Sequence (P28222 whole entry): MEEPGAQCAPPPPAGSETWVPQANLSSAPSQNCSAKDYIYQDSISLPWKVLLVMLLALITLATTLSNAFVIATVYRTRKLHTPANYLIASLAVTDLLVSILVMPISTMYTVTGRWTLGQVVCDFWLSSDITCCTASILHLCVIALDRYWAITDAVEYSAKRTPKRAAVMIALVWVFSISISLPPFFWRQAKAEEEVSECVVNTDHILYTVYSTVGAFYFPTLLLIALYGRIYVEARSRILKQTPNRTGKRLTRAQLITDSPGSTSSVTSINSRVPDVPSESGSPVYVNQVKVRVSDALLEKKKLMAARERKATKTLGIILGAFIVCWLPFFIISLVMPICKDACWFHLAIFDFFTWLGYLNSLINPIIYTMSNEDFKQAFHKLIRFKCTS
The following molecules are listed with their measured IA values.
No unit in the answer, please; the number alone is enough.

Examples from the recorded data:
[in] Kindly state the measured IA obtained for "Cc1ccc2c(OCCN3CCN(Cc4cccc5[nH]cnc45)CC3)cccc2n1" with 5-hydroxytryptamine receptor 1B (Homo sapiens, UniProt P28222).
[out] 0.3

[in] Kindly state the measured IA obtained for "COc1ccc(NC(=O)c2ccc(-c3ccc(-c4noc(C)n4)cc3C)cc2)cc1N1CCN(C)CC1" with 5-hydroxytryptamine receptor 1B (Homo sapiens, UniProt P28222).
[out] 0.47

[in] Kindly state the measured IA obtained for "Cc1ccc2c(OCCN3CCN(Cc4cccc5cc[nH]c45)CC3)cccc2n1" with 5-hydroxytryptamine receptor 1B (Homo sapiens, UniProt P28222).
[out] 0.1

***
[in] Kindly state the measured IA obtained for "Cc1ccc2c(OCCN3CCN(Cc4cccc5cccnc45)CC3)cccc2n1" with 5-hydroxytryptamine receptor 1B (Homo sapiens, UniProt P28222).
[out] 0.3

* * *

The following compounds are listed with their measured Selectivity values.
target: Serotonin 1 receptors; 5-HT1B & 5-HT1D (Homo sapiens) (UniProt P28222+P28221); assay: Selectivity for human 5-hydroxytryptamine 1D receptor over 5-hydroxytryptamine 1B receptor; assay type: protein assay

Examples from the recorded data:
[in] Kindly state the measured Selectivity obtained for "Cc1ccc2c(OCCN3CCN(Cc4cccc5cc[nH]c45)CC3)cccc2n1" with Serotonin 1 receptors; 5-HT1B & 5-HT1D (Homo sapiens) (UniProt P28222+P28221).
[out] 126

[in] Kindly state the measured Selectivity obtained for "Cc1ccc2c(OCCN3CCN(Cc4ccc(C)c([N+](=O)[O-])c4)CC3)cccc2n1" with Serotonin 1 receptors; 5-HT1B & 5-HT1D (Homo sapiens) (UniProt P28222+P28221).
[out] 40

[in] Kindly state the measured Selectivity obtained for "Cc1ccc2c(OCCN3CCN(Cc4ccc(Cl)c([N+](=O)[O-])c4)CC3)cccc2n1" with Serotonin 1 receptors; 5-HT1B & 5-HT1D (Homo sapiens) (UniProt P28222+P28221).
[out] 40

[in] Kindly state the measured Selectivity obtained for "Cc1ccc2c(OCCN3CCN(Cc4ccc(O)c(N)c4)CC3)cccc2n1" with Serotonin 1 receptors; 5-HT1B & 5-HT1D (Homo sapiens) (UniProt P28222+P28221).
[out] 158

[in] Kindly state the measured Selectivity obtained for "Cc1ccc2c(OCCN3CCN(Cc4ccc5[nH]ccc5c4)CC3)cccc2n1" with Serotonin 1 receptors; 5-HT1B & 5-HT1D (Homo sapiens) (UniProt P28222+P28221).
[out] 50

[in] Kindly state the measured Selectivity obtained for "Cc1ccc2c(OCCN3CCN(Cc4cccc5cccnc45)CC3)cccc2n1" with Serotonin 1 receptors; 5-HT1B & 5-HT1D (Homo sapiens) (UniProt P28222+P28221).
[out] 251

[in] Kindly state the measured Selectivity obtained for "Cc1ccc2c(OCCN3CCN(Cc4ccc(O)c([N+](=O)[O-])c4)CC3)cccc2n1" with Serotonin 1 receptors; 5-HT1B & 5-HT1D (Homo sapiens) (UniProt P28222+P28221).
[out] 40

[in] Kindly state the measured Selectivity obtained for "Cc1ccc2c(OCCN3CCN(Cc4cccc5[nH]cnc45)CC3)cccc2n1" with Serotonin 1 receptors; 5-HT1B & 5-HT1D (Homo sapiens) (UniProt P28222+P28221).
[out] 251

***
[in] Kindly state the measured Selectivity obtained for "Cc1ccc2c(OCCN3CCN(Cc4ccc(F)c([N+](=O)[O-])c4)CC3)cccc2n1" with Serotonin 1 receptors; 5-HT1B & 5-HT1D (Homo sapiens) (UniProt P28222+P28221).
[out] 32

[in] Kindly state the measured Selectivity obtained for "Cc1ccc2c(OCCN3CCN(Cc4cc(Cl)ccc4Cl)CC3)cccc2n1" with Serotonin 1 receptors; 5-HT1B & 5-HT1D (Homo sapiens) (UniProt P28222+P28221).
[out] 158
